Would you mind telling me the reported CC50 of each entry?
Tested on: HEL
EXPERIMENTAL_PROTOCOL: Cytotoxicity against human HEL cells after 3 days by coulter counter
Format: cell-based
TEST_PARAMETERS: 72 h
Response body: numeric value in µM, unit text excluded.

GET /values?item= CC(CP(=O)(O)O)OCCn1ccc(N)nc1=O (stereo not given) &system= HEL returns CC50: 307

Reading of CC50 for CC(CP(=O)(O)O)OCCn1ccc(=O)[nH]c1=O (stereo not given) with HEL: 291

The compound Nc1nc2c(ncn2CCOC(CO)CP(=O)(O)O)c(=O)[nH]1 (stereo not given) on HEL: CC50 was 300
